study_target: T1, monkey TIM-3 on CHOK1 stable cell line (CHOK1-cTIM-3) (monkey)
T1 chain: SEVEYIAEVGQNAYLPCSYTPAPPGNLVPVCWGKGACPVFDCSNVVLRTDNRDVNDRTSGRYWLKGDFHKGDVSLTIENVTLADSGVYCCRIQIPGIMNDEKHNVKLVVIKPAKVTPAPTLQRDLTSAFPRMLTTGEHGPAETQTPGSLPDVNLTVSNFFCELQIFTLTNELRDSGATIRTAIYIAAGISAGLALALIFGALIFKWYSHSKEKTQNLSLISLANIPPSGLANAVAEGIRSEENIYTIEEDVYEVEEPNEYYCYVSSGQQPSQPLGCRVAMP
protocol_description: FACS, CHOK1-cTIM-3 cells, 8 nM antibody
Listed here are binders together with their documented Mean fluorescence intensity.
Answer with the value's number alone.

*Q* What value of Mean fluorescence intensity has been reported for the following binder? 134H3G6 fully human TIM-3 antibody (human IgG4, kappa) (antibody, V domains shown) VH: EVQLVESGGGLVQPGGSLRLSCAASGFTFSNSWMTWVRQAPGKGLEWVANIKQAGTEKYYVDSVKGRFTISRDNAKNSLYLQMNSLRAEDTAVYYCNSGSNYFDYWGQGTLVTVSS VL: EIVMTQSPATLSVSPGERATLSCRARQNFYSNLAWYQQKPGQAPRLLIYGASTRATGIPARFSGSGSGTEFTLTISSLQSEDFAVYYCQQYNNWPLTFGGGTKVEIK
*A* 401

*Q* Next up: 34B6D8 fully human TIM-3 antibody (human IgG4, kappa) (antibody, V domains shown) VH: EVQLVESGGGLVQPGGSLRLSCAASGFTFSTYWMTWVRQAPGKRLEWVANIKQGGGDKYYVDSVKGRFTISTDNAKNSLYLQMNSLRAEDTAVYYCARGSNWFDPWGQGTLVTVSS VL: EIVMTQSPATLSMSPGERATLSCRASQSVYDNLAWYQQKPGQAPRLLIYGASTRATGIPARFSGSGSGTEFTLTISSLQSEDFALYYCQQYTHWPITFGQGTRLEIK
*A* 340

*Q* Next up: 57F4E5 fully human TIM-3 antibody (human IgG4, kappa) (antibody, V domains shown) VH: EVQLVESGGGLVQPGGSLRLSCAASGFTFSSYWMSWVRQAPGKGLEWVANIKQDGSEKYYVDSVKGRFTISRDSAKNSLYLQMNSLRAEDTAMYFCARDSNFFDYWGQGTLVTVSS VL: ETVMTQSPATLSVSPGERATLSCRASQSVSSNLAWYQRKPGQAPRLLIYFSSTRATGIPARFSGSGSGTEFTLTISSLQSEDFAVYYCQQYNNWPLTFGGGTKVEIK
*A* 259
